Collected MIC80 values appear next to each entry.
# Tested on: Candida albicans
# experiment.description: Antifungal activity against Candida albicans after 24 hrs by NCCLS protocol based method
# Assay type: functional

Solved cases below.
COc1ccccc1C(=O)OC1CCN(CC(O)(Cn2cncn2)c2ccc(F)cc2F)CC1 (stereo not given); 0.0039 to 0.0625 µg/mL
O=C(OC1CCN(CC(O)(Cn2cncn2)c2ccc(F)cc2F)CC1)c1ccccc1Br (stereo not given); 0.0039 to 0.0625 µg/mL

**Query** Which MIC80 is listed for O=C(OC1CCN(CC(O)(Cn2cncn2)c2ccc(F)cc2F)CC1)c1cccc([N+](=O)[O-])c1 (stereo not given) ?
**Result** 0.0039 to 0.0625 µg/mL

**Query** Repeat for the following compound: CN(CCOc1ccc(CC2SC(=O)N(CC(O)(Cn3cncn3)c3ccc(F)cc3F)C2=O)cc1)c1ccccn1 (stereo not given)
**Result** 6.72 µM

**Query** Repeat for the following compound: CCCCc1ccc(C(=O)OC2CCN(CC(O)(Cn3cncn3)c3ccc(F)cc3F)CC2)cc1 (stereo not given)
**Result** 0.0039 to 0.0625 µg/mL

----------
Collected MIC80 values appear next to each entry.
# Test system: Kluyveromyces marxianus
# experiment.description: Antifungal activity against Candida kefyr
# Assay type: functional
# condition.info: Kluyveromyces marxianus

Solved cases below.
OC(CN1CCC(OCc2ccc(Cl)c(Cl)c2)CC1)(Cn1cncn1)c1ccc(F)cc1F (stereo not given); 0.01 to 2.33 µM
OC(CN1CCC(OCc2ccc(Cl)cc2Cl)CC1)(Cn1cncn1)c1ccc(F)cc1F (stereo not given); 0.01 to 2.33 µM
OC(CN1CCC(OCc2cccc(Cl)c2)CC1)(Cn1cncn1)c1ccc(F)cc1F (stereo not given); 0.01 to 2.33 µM
OC(CN1CCC(OCc2ccccc2Cl)CC1)(Cn1cncn1)c1ccc(F)cc1F (stereo not given); 0.01 to 2.33 µM

Could you now look at the following compound, please?
**Query** Which MIC80 is listed for OC(CN1CCC(OCc2cccc(Br)c2)CC1)(Cn1cncn1)c1ccc(F)cc1F (stereo not given) ?
**Result** 0.01 to 0.56 µM

----------
# System: Pichia norvegensis
# experiment.description: Antifungal activity against Candida mycoderma
# Format: functional
Collected MIC values appear next to each entry.

O=C(O)c1cn(C2CC2)c2c(Cl)c(N3CCC(NCC(O)(Cn4cncn4)c4ccc(F)cc4F)C3)c(F)cc2c1=O (centres undefined); 0.25 to 2 µg/mL
O=C(O)c1cn(C2CC2)c2c(Cl)c(N3CCC(NCC(O)(Cn4cncn4)c4ccc(F)c(F)c4)C3)c(F)cc2c1=O (centres undefined); 0.25 to 2 µg/mL

**Query** Which MIC is listed for O=C(O)c1cn(C2CC2)c2c(Cl)c(N3CCC(NCC(O)(Cn4cncn4)c4ccc(Cl)c(Cl)c4)C3)c(F)cc2c1=O (centres undefined) ?
**Result** 0.25 to 2 µg/mL

**Query** Repeat for the following compound: O=C(O)c1cn(C2CC2)c2c(Cl)c(N3CCC(NCC(O)(Cn4cncn4)c4ccc(F)cc4)C3)c(F)cc2c1=O (centres undefined)
**Result** 0.25 to 2 µg/mL

----------
Collected MIC values appear next to each entry.
# System: Nannizzia gypsea
# experiment.description: Antifungal activity against Microsporum gypseum after 7 days by NCCLS protocol based method
# Assay type: functional
# condition.info: 168 h
Numbers only here, please. The scale is ng/mL.

Solved cases below.
Cc1ccc(OCCCN(C)CC(O)(Cn2cncn2)c2ccc(F)cc2F)cc1 (centres undefined); 1
CN(CCCCOc1ccc(Cl)cc1)CC(O)(Cn1cncn1)c1ccc(F)cc1F (centres undefined); 1
OC(Cn1cncn1)(Cn1cncn1)c1ccc(F)cc1F [FLUCONAZOLE]; 500

**Query** Which MIC is listed for Cc1ccc(OCCCCN(C)CC(O)(Cn2cncn2)c2ccc(F)cc2F)cc1 (centres undefined) ?
**Result** 1

**Query** Repeat for the following compound: Cc1cccc(OCCCCN(C)CC(O)(Cn2cncn2)c2ccc(F)cc2F)c1 (centres undefined)
**Result** 1

**Query** Repeat for the following compound: CN(CCCOc1ccc(Cl)cc1)CC(O)(Cn1cncn1)c1ccc(F)cc1F (centres undefined)
**Result** 1

**Query** Repeat for the following compound: CN(CCCOc1ccc([N+](=O)[O-])cc1)CC(O)(Cn1cncn1)c1ccc(F)cc1F (centres undefined)
**Result** 1

**Query** Repeat for the following compound: CN(CCCCOc1ccc([N+](=O)[O-])cc1)CC(O)(Cn1cncn1)c1ccc(F)cc1F (centres undefined)
**Result** 1

**Query** Repeat for the following compound: CCC(C)n1ncn(-c2ccc(N3CCN(c4ccc(OCC5COC(Cn6cncn6)(c6ccc(Cl)cc6Cl)O5)cc4)CC3)cc2)c1=O (centres undefined) [ITRACONAZOLE]
**Result** 62.5

**Query** Repeat for the following compound: Cc1cccc(OCCCN(C)CC(O)(Cn2cncn2)c2ccc(F)cc2F)c1 (centres undefined)
**Result** 1

----------
Collected MIC values appear next to each entry.
# System: Cryptococcus neoformans
# experiment.description: Antifungal activity against Cryptococcus neoformans
# Assay type: functional
# condition.info: Cryptococcus neoformans; read-out: MIC
Numbers only here, please. The scale is µg/mL.

OC(Cn1cncn1)(Cn1cncn1)c1ccc(F)cc1F; 1

**Query** Which MIC is listed for CCCCCCc1cnn(Cn2cc(CC(O)(Cn3cncn3)c3ccc(F)cc3F)nn2)n1 (stereo not given) ?
**Result** 0.00015

**Query** Repeat for the following molecule: OC(Cc1cn(Cn2ncc(CC3CCCCC3)n2)nn1)(Cn1cncn1)c1ccc(F)cc1F (stereo not given)
**Result** 0.00015
